Assay: Stability test in liver microsomes (rat)
Format: in vitro ADME
Settings: rat liver microsomes, 1 μM compound, 30 min
Can you tell me RLM, percentage of remaining compound after 30 minutes of incubation for the items I'm about to list?
Hi! Could you send only the number? It should be in %, unit omitted.

Name the recorded RLM, percentage of remaining compound after 30 minutes of incubation for C[C@H]1CN(C2COC2)CCN1c1cnc(Nc2cc(-c3ccnc(-n4ccn5c6c(cc5c4=O)CC(C)(C)C6)c3CO)cn(C)c2=O)nc1 . 97.1

Consider the compound C[C@H]1CN(C2COC2)CCN1c1ccc(Nc2cc(-c3ccnc(-n4ccn5c6c(cc5c4=O)CCC6)c3CO)cn(C)c2=O)nc1 and give its measured RLM, percentage of remaining compound after 30 minutes of incubation. 92.1

Recorded RLM, percentage of remaining compound after 30 minutes of incubation for CC1CCc2cc3c(=O)n(-c4nccc(-c5cc(Nc6ccc(N7CCN(C8COC8)C[C@@H]7C)cn6)c(=O)n(C)c5)c4CO)ccn3c2C1 (mixture of isomers) , please? 91.8

Bench note: what RLM, percentage of remaining compound after 30 minutes of incubation did C[C@H]1CN(C2COC2)CCN1c1ccc(Nc2cc(-c3ccnc(-n4ccn5c6c(cc5c4=O)CC(C)(C)C6)c3CO)nn(C)c2=O)nc1 show? 95.6

Would you kindly share the measured RLM, percentage of remaining compound after 30 minutes of incubation for C[C@H]1CN(C2COC2)CCN1c1ccc(Nc2cc(-c3ccnc(N4CCn5c(cc6c5CC(C)(C)C6)C4=O)c3CO)cn(C)c2=O)nc1 [GDC-0853, fenebrutinib, reference compound] ? 81.0

Returns the measured RLM, percentage of remaining compound after 30 minutes of incubation for the input compound. Input: Cn1cc(-c2ccnc(-n3ccn4c5c(cc4c3=O)CC(C)(C)C5)c2CO)cc(Nc2ccc(N3CCN(C4COC4)CC3)cn2)c1=O 89.5

Item under review: C[C@H]1CN(C2COC2)CCN1c1ccc(Nc2cc(-c3ccnc(-n4ccn5c(cc6cc(F)ccc65)c4=O)c3CO)cn(C)c2=O)nc1 . Reported RLM, percentage of remaining compound after 30 minutes of incubation? 84.0

----------
Assay: Study on in vivo pharmacokinetics in mice
Design: species or system mouse
Details: male, ICR, mouse, oral; mice, intragastric, 10 mg/kg, plasma at 24 h; read-out: C24 h
READOUT KIND: concentration at 24 h (ng/mL)
Write down the numeric answer in ng/mL and omit the unit.

Quick one: concentration at 24 h for C[C@H]1CN(C2COC2)CCN1c1ccc(Nc2cc(-c3ccnc(-n4ccn5c6c(cc5c4=O)CC(C)(C)C6)c3CO)cn(C)c2=O)nc1 ? 8.5

----------
Molecular target: BTK recombinant protein (Homo sapiens (Human), UniProt Q06187)
Sequence (Q06187 whole entry): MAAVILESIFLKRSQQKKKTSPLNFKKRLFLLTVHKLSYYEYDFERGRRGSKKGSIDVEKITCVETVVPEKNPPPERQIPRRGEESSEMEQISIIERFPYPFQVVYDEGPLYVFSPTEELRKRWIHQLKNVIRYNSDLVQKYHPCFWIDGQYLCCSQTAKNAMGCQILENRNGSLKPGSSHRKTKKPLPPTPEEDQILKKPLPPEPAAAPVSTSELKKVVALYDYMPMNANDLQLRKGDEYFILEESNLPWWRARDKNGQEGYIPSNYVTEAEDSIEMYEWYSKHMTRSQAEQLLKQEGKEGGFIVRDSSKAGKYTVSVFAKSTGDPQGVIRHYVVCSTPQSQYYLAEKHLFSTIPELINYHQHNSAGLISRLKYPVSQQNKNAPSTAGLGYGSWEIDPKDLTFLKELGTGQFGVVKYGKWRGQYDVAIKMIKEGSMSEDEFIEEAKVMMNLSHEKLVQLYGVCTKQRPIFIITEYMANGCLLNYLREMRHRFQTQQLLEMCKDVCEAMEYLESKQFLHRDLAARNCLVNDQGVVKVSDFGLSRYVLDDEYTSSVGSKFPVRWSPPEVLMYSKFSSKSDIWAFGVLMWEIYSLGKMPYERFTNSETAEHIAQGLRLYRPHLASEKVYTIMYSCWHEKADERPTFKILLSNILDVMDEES
Assay: Determination of biochemical BTK (Z'-LYTE kinase assay)
Give IC50 for every item shown.
State just the number; it will be interpreted in nM.

Recall the recorded IC50 for C[C@H]1CN(C2COC2)CCN1c1ccc(Nc2cc(-c3ccnc(-n4ccn5c6c(cc5c4=O)CC(C)(C)C6)c3CO)cn(C)c2=O)nc1 with BTK recombinant protein (Homo sapiens (Human), UniProt Q06187) and state it. 8

Form field - read-out: IC50; system: BTK recombinant protein (Homo sapiens (Human), UniProt Q06187); submitted item: Cn1cc(-c2ccnc(-n3ccn4c5c(cc4c3=O)CC(C)(C)C5)c2CO)cc(Nc2ccc(N3CCN4CCOCC4C3)cn2)c1=O (racemic) 12

Item CCn1cc(Nc2cc(-c3ccnc(-n4ccn5c6c(cc5c4=O)CC(C)(C)C6)c3CO)cn(C)c2=O)nn1 with BTK recombinant protein (Homo sapiens (Human), UniProt Q06187) - IC50? 3

For BTK recombinant protein (Homo sapiens (Human), UniProt Q06187), provide IC50 of CC1c2cc(Nc3cc(-c4ccnc(-n5ccn6c7c(cc6c5=O)CCC7)c4CO)cn(C)c3=O)nn2CCN1C1COC1 (racemic) please. 18

Item COCC(C)n1cc(Nc2nc(-c3ccnc(-n4ccn5c6c(cc5c4=O)CC(C)(C)C6)c3CO)cn(C)c2=O)nn1 (stereo not drawn) with BTK recombinant protein (Homo sapiens (Human), UniProt Q06187) - IC50? 269

Param readout= IC50; system= BTK recombinant protein (Homo sapiens (Human), UniProt Q06187); entry= COCCN1CCn2nc(Nc3cc(-c4ccnc(-n5ccn6c7c(cc6c5=O)CCC7)c4CO)cn(C)c3=O)cc2C1C (racemic) ; returns value. 33

Reference source: patent US12070457B2
